Assay: In vivo bioavailability / PK after 1 mg/kg IV or 10 mg/kg PO
Design: species or system Male ICR mice
Settings: male, ICR, mouse, plasma, iv, 1 mg/kg, IV; read-out: AUClast
Listed here: items and their measured AUC(0-t).
State just the number; it will be interpreted in ng·h/mL.

The following compounds have reported results that may help.
O=[N+]([O-])c1c(Cl)cc(O)c2c1C1C=CCC1C(c1ccc(Cl)cc1)N2 (stereo not drawn) : 393
CC(C)C[C@@H](CO)NCc1cc(O)c2cc(F)ccc2n1 : 410

Now for the compound whose AUC(0-t) we want.
What value of measured AUC(0-t) is listed for `Cc1[nH]nc(-c2ccc(O)c(C)c2O)c1-c1nc2ccccc2s1` ?
85

====

Assay: In vivo bioavailability / PK after 1 mg/kg IV or 10 mg/kg PO
Set-up: species or system Male ICR mice
Conditions: male, ICR, mouse, plasma, iv, 1 mg/kg, mg/kg IV, time 6 h, mouse#1-3; read-out: in vivo PK raw, level per mouse
OUTCOME MEASURE: concentration at 6 h (nM)
Respond with the bare value in nM.

Give its concentration at 6 h value. Item: Cc1[nH]nc(-c2ccc(O)c(C)c2O)c1-c1nc2ccccc2s1 [Compound E12]
0

====

Assay: Semi-thermodynamic solubility
Format: physicochemical
Conditions: PBS, aqueous buffer, thermodynamic from solid, Room Temp; Overnight; LC-MSMS; read-out: Mean Solubility
solubility values, listed per item
Just the number please, in µM, no unit attached.

N#Cc1c(Cl)cc(O)c2c1C1C=CCC1C(c1ccc(Cl)cc1)N2 (stereo not shown) : 24.8

Entry `CC1(C)Cc2cccc(OCC(=O)Nc3nc4ccccc4s3)c2O1` : reported solubility = ?
1.25

# lookup: solubility of O=[N+]([O-])c1c(Cl)cc(O)c2c1C1C=CCC1C(c1ccc(Cl)cc1)N2 (stereo not shown)
10.4

Please give the measured solubility for this compound: Oc1cc(Cl)cc2c1NC(c1ccccc1)C1CC=CC21 (stereo not shown)
2.18

====

Assay: CaCo-2 permeability (bi-directional)
Conditions: human, Caco-2, Mean Papp B-A, Caco-2; summary sheet
Threshold 8 ×10⁻⁶ cm/s: Papp B→A at 120 min, 10 μM strictly smaller gives Satisfied, otherwise Not satisfied.

Oc1cc(Cl)cc2c1NC(c1ccc(Cl)cc1)C1CC=CC21 (stereo not shown) [Compound 12] : Satisfied
N#Cc1c(Cl)cc(O)c2c1C1C=CCC1C(c1ccc(Cl)cc1)N2 (stereo not shown) [Compound 14] : Satisfied
O=[N+]([O-])c1c(Cl)cc(O)c2c1C1C=CCC1C(c1ccc(Cl)cc1Cl)N2 (stereo not shown) [Compound 8] : Satisfied

Dear colleague, could you confirm whether Papp B→A at 120 min, 10 μM of CC(C)C[C@@H](CO)NCc1cc(O)c2cc(F)ccc2n1 [Compound 3.14] falls below 8 ×10⁻⁶ cm/s? Thanks.
Not satisfied

Please indicate whether the reported Papp B→A at 120 min, 10 μM of Oc1cc(Cl)cc2c1NC(c1ccccc1)C1CC=CC21 (stereo not shown) [Compound 11] is strictly below 8 ×10⁻⁶ cm/s.
Not satisfied

In plain terms, does Cc1[nH]nc(-c2ccc(O)c(C)c2O)c1-c1nc2ccccc2s1 [Compound E12] come in under 8 ×10⁻⁶ cm/s for Papp B→A at 120 min, 10 μM?
Not satisfied
